All figures here come from patent US20170049908A1.

Please provide measured EC50 for the entries that follow.
# System: Ramos cells
# assay comment: cells
# settings: Homo sapiens, 72 h, read-out: EC50 in picoM, Ramos
Field format: number, assumed nM, no unit text.

Field EC50 (entry CN(CCCN)CCCNC(=O)O[C@H]1CC[C@@]2(C)[C@H](CC[C@@H]3[C@@H]2CC[C@]2(C)[C@H](c4ccc(=O)oc4)CC[C@]32O)C1 ) reads 3.6

The reported value for C[C@]12CC[C@H](O)C[C@H]1CC[C@@H]1[C@@H]2CC[C@]2(C)[C@@H](c3ccc(=O)oc3)CC[C@]12O [Bufalin, reference compound] in terms of EC50 is 7.3

Summary for this compound, C[C@]12CC[C@H](OC(=O)NCCCNCCCN)C[C@H]1CC[C@@H]1[C@@H]2CC[C@]2(C)[C@H](c3ccc(=O)oc3)CC[C@]12O : EC50 is 4
